- protocol summary: Kinetic study: plasma kinetics of TMC278 after single IM or SC injection of a nanosuspension
- Format: in vivo, male beagle dogs
- measurement context: male, beagle, dog, plasma, sc, 5 mg/kg, plasma concentration of TMC278, single SC 5 mg/kg TMC278 nanosuspension, dog 19349, 1368 h (d57)
property measured: concentration at 1368 h (ng/mL)
Write it as a number; the unit ng/mL goes unstated.

So what does the record say about concentration at 1368 h for Cc1cc(C=CC#N)cc(C)c1Nc1ccnc(Nc2ccc(C#N)cc2)n1 ?
2.52

---

- protocol summary: Kinetic study: plasma kinetics of TMC278 after single IM or SC injection of a nanosuspension;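 note: healthy male beagle dogs injected in both biceps femoris muscles (IM) or both thoracal sides (SC), total volume 0.2 mL/kg, drug measured in plasma from blood samples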
- Type: in vivo, male beagle dogs
- measurement context: male, beagle, dog, plasma, intramuscular, 5 mg/kg, plasma concentration of TMC278, single IM 5 mg/kg TMC278 nanosuspension, mean of 2 dogs, 384 h (d16)
property measured: concentration at 384 h
Kindly format the answer as number then unit.

# lookup: concentration at 384 h of Cc1cc(C=CC#N)cc(C)c1Nc1ccnc(Nc2ccc(C#N)cc2)n1
22.3 ng/mL
